Target: human ether a go-go related gene (hERG) K+ channel (Homo sapiens, UniProt Q12809)
Construct: Chinese Hamster Ovary cell line stably expressing the full-length hERG potassium channel
Sequence (Q12809 whole entry): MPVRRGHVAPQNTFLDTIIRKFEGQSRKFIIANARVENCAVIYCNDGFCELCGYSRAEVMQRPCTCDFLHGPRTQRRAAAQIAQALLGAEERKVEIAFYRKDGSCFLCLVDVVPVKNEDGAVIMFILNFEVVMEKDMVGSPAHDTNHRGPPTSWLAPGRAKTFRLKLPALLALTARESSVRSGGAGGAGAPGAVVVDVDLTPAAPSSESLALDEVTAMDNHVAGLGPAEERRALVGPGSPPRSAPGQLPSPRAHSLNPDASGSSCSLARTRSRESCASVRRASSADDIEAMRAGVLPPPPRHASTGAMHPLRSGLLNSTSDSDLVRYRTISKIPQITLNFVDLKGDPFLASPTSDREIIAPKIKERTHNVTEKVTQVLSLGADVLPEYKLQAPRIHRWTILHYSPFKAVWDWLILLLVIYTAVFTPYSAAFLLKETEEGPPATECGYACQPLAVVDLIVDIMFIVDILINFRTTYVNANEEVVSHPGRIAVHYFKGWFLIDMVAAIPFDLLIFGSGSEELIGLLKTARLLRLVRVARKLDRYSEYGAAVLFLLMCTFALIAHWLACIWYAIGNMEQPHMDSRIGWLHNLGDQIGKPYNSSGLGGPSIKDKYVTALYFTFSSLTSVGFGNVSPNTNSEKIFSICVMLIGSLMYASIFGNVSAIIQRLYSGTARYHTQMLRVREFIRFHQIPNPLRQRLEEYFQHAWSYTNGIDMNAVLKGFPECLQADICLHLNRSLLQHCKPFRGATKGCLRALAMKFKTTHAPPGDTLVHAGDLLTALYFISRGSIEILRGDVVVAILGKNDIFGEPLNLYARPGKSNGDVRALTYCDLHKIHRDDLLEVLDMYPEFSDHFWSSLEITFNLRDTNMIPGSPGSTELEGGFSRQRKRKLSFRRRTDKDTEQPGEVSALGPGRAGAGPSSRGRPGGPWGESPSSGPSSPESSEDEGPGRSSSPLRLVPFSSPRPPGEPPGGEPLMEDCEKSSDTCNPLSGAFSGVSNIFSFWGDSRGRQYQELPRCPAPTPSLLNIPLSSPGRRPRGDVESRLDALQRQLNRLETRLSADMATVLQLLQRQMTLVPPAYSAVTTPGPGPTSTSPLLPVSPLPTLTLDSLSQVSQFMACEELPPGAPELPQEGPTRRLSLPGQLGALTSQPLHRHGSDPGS
Assay: hERG inhibition assay, QPatch HTX automated electrophysiology
Settings: CHO cell line stably expressing hERG, whole-cell patch clamp, maximum test concentration 300 μM
QUANTITY_KIND: log10 IC50 (log10 of the value in µM)
The base-10 logarithm of IC50, taken with IC50 in µM, is what appears here.

Sample answers from the record:
[[record]]
compound = "O=C1COc2ccc(N3C[C@H](CNCCc4c(F)ccc5ccc(=O)n(CCO)c45)OC3=O)nc2N1"
quantity_kind = "log10 IC50"
measured = 1.85

[[record]]
compound = "Cn1c(=O)cnc2ccc(F)c(CCNC[C@@H]3CN(c4ccc5c(n4)NC(=O)CO5)C(=O)O3)c21"
quantity_kind = "log10 IC50"
measured = 1.15

[[record]]
compound = "Cn1c(=O)ccc2ccc(F)c(CCCNC[C@@H]3CN(c4cnc5c(n4)NC(=O)CO5)C(=O)O3)c21"
quantity_kind = "log10 IC50"
measured = 1.54

[[record]]
compound = "Cn1c(=O)ccc2ccc(F)c(CCNC[C@H]3CN(c4ncc5c(n4)NC(=O)CO5)C(=O)O3)c21"
quantity_kind = "log10 IC50"
measured = 2.31


Here's the next entry for you.
GET /values?readout=log10 IC50&item= "O=C1COc2ccc(N3C[C@H](CNCCc4c(F)ccc5ncc(=O)n(CCO)c45)OC3=O)nc2N1"
1.84
